Entries annotated with measured melting point

Prompt: Specify measured melting point for Cc1cc(S(=O)(=O)CC(=O)O)ccc1NC(=O)Cc1ccc(C)c(Oc2cc(Cl)cc(C#N)c2)c1 .
Completion: 180.5 to 181.4 °C

Prompt: Specify measured melting point for Cc1cc(CC(=O)Nc2ccccc2Cl)cc(C(=O)c2ccccc2Cl)c1 .
Completion: 125.1 to 127 °C

Prompt: Specify measured melting point for Cc1cc(CC(=O)Nc2ccc(S(N)(=O)=O)cc2C)cc(C(=O)c2cccc(Cl)c2)c1 .
Completion: 210.3 to 211.6 °C

Prompt: Specify measured melting point for CC(F)(F)c1cc(C#N)cc(Oc2c(Cl)ccc(CC(=O)Nc3ccc(S(N)(=O)=O)cc3Cl)c2F)c1 .
Completion: 192 to 197.6 °C

Prompt: Specify measured melting point for N#Cc1cc(Oc2c(Br)ccc(CC(=O)Nc3ccc(S(N)(=O)=O)cc3Cl)c2F)cc(C(F)F)c1 .
Completion: 205.4 to 207.7 °C

Prompt: Specify measured melting point for CCCC(=O)N(C)S(=O)(=O)c1ccc(NC(=O)Cc2ccc(Cl)c(Oc3cc(Cl)cc(C#N)c3)c2F)c(Cl)c1 .
Completion: 186.9 to 187.6 °C

From here, focus on the item given below.
Prompt: Specify measured melting point for NS(=O)(=O)c1ccc(NC(=O)Cc2cc3c(c(C(=O)c4ccc(Cl)cc4)c2)OCC3)cc1 .
Completion: 259 to 261 °C
